tested on: 439559-082-T-J2-PDC spheroid viability; test: Anticancer human tumor 439559-082-T-J2-PDC patient-derived colon adenocarcinoma cell line growth inhibition [POLQ]; details: second compound 0.0316 µM; first compound 1 µM; stronger effect = lower value; spheroids with HUVEC and MSC;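 further: spheroids exposed to compounds for seven days before readout; 100% = DMSO vehicle control viability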
viability, T/C by entry:
ENDPOINT LABEL: viability, T/C (%)

| COMPOUND | TARGET OR SYSTEM | ENDPOINT LABEL | OBS VALUE |
| --- | --- | --- | --- |
| CCc1cc2c(N3CCc4c(cc(Cn5ccnc5)cc4-c4cn(C)nc4C(F)(F)F)C3=O)ccnc2c(OC)n1 + Nc1ccc(C#CCN(C(=O)Cc2ncc(C(F)(F)F)cc2C(F)(F)F)c2ccc(F)cc2)nn1 | 439559-082-T-J2-PDC spheroid viability | viability, T/C | 89.9 |
| COc1cccc(OCCCN)c1-c1cc(Nc2cnc(C#N)cn2)n[nH]1 + Cc1cccc(N(C)C(=O)C2C(O)CCN2c2nc(C)cc(C(F)(F)F)c2C#N)c1 | 439559-082-T-J2-PDC spheroid viability | viability, T/C | 18.5 |
| CCCS(=O)(=O)Nc1ccc(F)c(C(=O)c2c[nH]c3ncc(-c4ccc(Cl)cc4)cc23)c1F + Nc1ccc(C#CCN(C(=O)Cc2ncc(C(F)(F)F)cc2C(F)(F)F)c2ccc(F)cc2)nn1 | 439559-082-T-J2-PDC spheroid viability | viability, T/C | 90.5 |
